meta.source: PubChem BioAssay AID383

// reported Tm shift for each item listed
biological target: Dual specificity protein kinase CLK3 (Homo sapiens) (UniProt P49761); assay: CLK3 binders by thermal stabilization, biophysical, thermal shift, recombinant protein (AID 383); details: at 10 µM, protein 1.7 µM, buffer 10 mM HEPES, pH 7.5, NaCl 150 mM, with 50 µM L-Arg/L-Glu (1:1), active compounds read high
Sequence (P49761 whole entry, looked up): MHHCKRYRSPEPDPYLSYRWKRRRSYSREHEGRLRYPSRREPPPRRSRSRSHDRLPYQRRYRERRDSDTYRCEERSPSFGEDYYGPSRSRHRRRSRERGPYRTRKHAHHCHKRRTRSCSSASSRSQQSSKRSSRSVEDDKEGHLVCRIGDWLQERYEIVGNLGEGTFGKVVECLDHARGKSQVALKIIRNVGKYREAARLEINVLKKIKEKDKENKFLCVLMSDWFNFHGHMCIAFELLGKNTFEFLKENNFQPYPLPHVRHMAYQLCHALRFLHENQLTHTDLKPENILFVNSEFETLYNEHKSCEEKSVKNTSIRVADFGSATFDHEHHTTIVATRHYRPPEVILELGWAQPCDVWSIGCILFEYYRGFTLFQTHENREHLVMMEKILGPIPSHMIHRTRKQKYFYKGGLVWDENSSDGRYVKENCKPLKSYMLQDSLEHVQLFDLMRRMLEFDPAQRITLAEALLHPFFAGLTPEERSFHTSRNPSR

compound_string: COc1ccc(Nc2nc(N)c(C(=O)c3ccc(OC)cc3)s2)cc1
experimental_target: Dual specificity protein kinase CLK3 (Homo sapiens) (UniProt P49761)
readout_value: 4.3 Celsius

Tm shift for Nc1nc(Nc2cccc(Cl)c2)sc1C(=O)c1ccc(F)cc1 ?
3.4 Celsius

Looking for the measured Tm shift of COc1ccc(Nc2nc(N)c(C(=O)c3ccc(Cl)cc3)s2)cc1 , can you help?
3.7 Celsius

# Tm shift lookup, item Nc1nc(Nc2ccc(F)cc2)sc1C(=O)c1ccccc1
3.2 Celsius
